The measurements presented in this section are drawn from ChEMBL document CHEMBL5034015.

target: Induced myeloid leukemia cell differentiation protein Mcl-1 (Homo sapiens, UniProt Q07820); assay: Binding affinity to full length human MCL1 expressed in Escherichia coli BL21 (DE3) at 100 uM preincubated for 30 mins followed by 5-FAM-QEDIIIINIARHLAQVGDSMD-RSIPPG tracer addition and measured after 20 mins by fluorescence polarization assay relative to control; settings: time 50.0 min
Sequence (Q07820 whole entry): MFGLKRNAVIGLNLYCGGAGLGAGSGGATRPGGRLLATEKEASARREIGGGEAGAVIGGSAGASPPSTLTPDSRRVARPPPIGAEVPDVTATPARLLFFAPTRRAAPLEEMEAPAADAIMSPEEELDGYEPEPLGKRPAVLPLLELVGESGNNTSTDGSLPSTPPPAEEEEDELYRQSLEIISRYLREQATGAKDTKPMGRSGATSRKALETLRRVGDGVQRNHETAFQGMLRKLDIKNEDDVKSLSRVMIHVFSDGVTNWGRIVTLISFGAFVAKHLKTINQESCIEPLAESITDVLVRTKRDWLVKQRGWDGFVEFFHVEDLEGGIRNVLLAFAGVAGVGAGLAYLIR
Collected inhibition values appear next to each entry.
OBSERVED PROPERTY: inhibition (%)

SMI	UNIT SYMBOL	DATA VALUE
O=C(Nc1cccc([N+](=O)[O-])c1)N1CCN(S(=O)(=O)c2sccc2-c2ccccc2Oc2ccc(O)c(O)c2)CC1	%	74
O=C(Nc1cc(C(F)(F)F)cc(C(F)(F)F)c1)N1CCN(S(=O)(=O)c2sccc2-c2ccccc2Oc2ccc(O)c(O)c2)CC1	%	47
COc1ccc(Oc2ccccc2-c2ccsc2S(=O)(=O)N2CCN(C(=O)Nc3ccc([N+](=O)[O-])cc3)CC2)cc1OC	%	22
